# System: CCRIS mutagenicity, Ames/micronucleus/aberration tests
# assay-summary: CCRIS mutagenicity studies
# assay-setup: Test System: AMES SALMONELLA TYPHIMURIUM; Strain/Indicator: TA102; Metabolic Activation: NONE; Method: PREINCUBATION
# Source text: The CCRIS database contains chemical records with carcinogenicity, mutagenicity, tumor promotion, and tumor inhibition test results. It was developed by the National Cancer Institute (NCI). Data are derived from studies cited in primary journals, current awareness tools, NCI reports, and other sources. Test results have been reviewed by experts in carcinogenesis and mutagenesis. CCRIS provides historical information from the years 1985 - 2011. It is no longer updated. […]
Activity calls are given as the source filed them. The rule behind the calls is not given here.
Please state which outcome applies, choosing from active, inactive

Reference set (6 entries):
{"smiles-representation": "Cc1cccc(O)c1", "category": "inactive"}
{"smiles-representation": "COc1ccc2c3c([nH]c2c1)C(C)=NCC3", "category": "inactive"}
{"smiles-representation": "CCCC[N+](=O)[O-]", "category": "inactive"}
{"smiles-representation": "O=C1C=CC(=O)C(c2ccccc2)=C1", "category": "inactive"}
{"smiles-representation": "CCCCC/C(C=O)=C/c1ccccc1", "category": "inactive"}
{"smiles-representation": "O=CCCCC=O", "category": "active"}

Input: For this compound, state the assay outcome: Nc1nc(=O)n([C@H]2C[C@H](O)[C@@H](CO)O2)cc1I
Output: inactive

Input: For this compound, state the assay outcome: O=c1ccc(=O)c2c(=O)c(Cl)c(Cl)c(=O)c1=2
Output: active

Input: For this compound, state the assay outcome: O=C(OOC(=O)c1ccccc1)c1ccccc1
Output: inactive

Input: For this compound, state the assay outcome: O=C1C=CC(=O)C=C1
Output: inactive

Input: For this compound, state the assay outcome: NCc1cccc(CN)c1
Output: inactive

Input: For this compound, state the assay outcome: C[n+]1c2ccccc2nc2ccccc21
Output: inactive

====

# Test system: CCRIS mutagenicity, Ames/micronucleus/aberration tests
# assay-summary: CCRIS mutagenicity studies
# assay-setup: Test System: AMES SALMONELLA TYPHIMURIUM; Strain/Indicator: TA100; Metabolic Activation: NONE; Method: STANDARD PLATE
Calls of active or inactive are those of the source. The rule behind the calls is not given here.
Please state which outcome applies, choosing from active, inactive

Reference set (10 entries):
{"smiles-representation": "Cc1cc(N)c([N+](=O)[O-])c(C)c1N", "category": "inactive"}
{"smiles-representation": "CCOC(=O)C(C)(C)Oc1ccc(Cl)cc1", "category": "inactive"}
{"smiles-representation": "ONc1ccc(Cl)cc1", "category": "inactive"}
{"smiles-representation": "Cc1cc(O)ccc1Cl", "category": "inactive"}
{"smiles-representation": "O=S(=O)(Nc1ccc(Cl)cc1Cl)c1cccc2cccnc12", "category": "inactive"}
{"smiles-representation": "Cc1occc(=O)c1[O-].Cc1occc(=O)c1[O-].Cc1occc(=O)c1[O-].[Al+3]", "category": "inactive"}
{"smiles-representation": "CCN(N)c1ccccc1", "category": "active"}
{"smiles-representation": "Clc1cc(Cl)c(Cl)cc1Cl", "category": "inactive"}
{"smiles-representation": "CSCCC(=O)N1[C@@H](c2ccccc2O)SC[C@H]1C(=O)O", "category": "inactive"}
{"smiles-representation": "CC(C)(C)NC(=O)[C@H]1CC[C@H]2[C@@H]3CC=C4C=C(C(=O)O)CC[C@]4(C)[C@H]3CC[C@]12C", "category": "inactive"}

Kindly review the next compound as well.
Input: For this compound, state the assay outcome: OCc1ccc2c(c1)-c1cccc3cccc-2c13
Output: active
